Origin of measurements: paper PMC11329725

- testedSystem: T1, OB23 (OB2-OB3 with tower) (human, UniProt P51587 2808-3192)
- T1 sequence: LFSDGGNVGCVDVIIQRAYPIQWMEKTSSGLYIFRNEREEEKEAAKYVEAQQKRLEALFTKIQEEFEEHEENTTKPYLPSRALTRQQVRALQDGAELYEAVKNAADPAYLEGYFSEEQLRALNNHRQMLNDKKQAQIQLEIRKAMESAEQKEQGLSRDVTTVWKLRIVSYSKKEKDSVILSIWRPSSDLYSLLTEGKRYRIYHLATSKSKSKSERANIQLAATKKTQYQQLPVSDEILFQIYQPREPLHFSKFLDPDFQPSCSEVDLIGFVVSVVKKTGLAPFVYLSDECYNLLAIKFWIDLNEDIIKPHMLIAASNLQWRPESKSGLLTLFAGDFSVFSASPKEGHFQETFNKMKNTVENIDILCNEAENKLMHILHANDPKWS
- protocolText: EMSA
resultType: Kd (nM)
Give the value in nM but do not write nM after it.

Documented Kd of Cy5 80-mer ssDNA (oligo 1) (ssDNA) DNA: TTATATCCTTTACTTTGAATTCTATGTTTAACCTTTTACTTATTTTGTATTAGCCGGACCTTATTTCAATTATGTTCAT : 270
